What viability at 28.5 h, 10 µM was measured for each of the following?
Experiment: in vitro
Conditions: human, hela cells, % viability
Answers are plain numbers, in %.

Consider the following illustrative entries.
O=C(Nc1ccccc1C(=O)O)c1cccc(-n2cnnc2)c1 = 85.4
COc1ccccc1C1(O)CCN(CC(O)c2ccc(C(C)(C)C)cc2)CC1 (stereo not drawn) = 96.2
Cc1cc(-c2cn3cc(C(=O)NCCN(C)C)nc3c(=O)n2C)c(C)o1 = 94.3
CSc1ccccc1Nc1ncnc2n[nH]cc12 = 114
COc1ccccc1C1(O)CCCC2CN(C(C)=O)CC21 (stereo not drawn) = 102

Answer for every listed entry: what is its viability at 28.5 h, 10 µM? The entries follow.
1. COc1ccc(CSc2nnc(-c3ccncc3)n2C)cc1[N+](=O)[O-]
2. CC(=O)N1C[C@@H]2OCC(=O)N(Cc3nccn3C)[C@@H]2C1
3. Cc1ccc(-n2c(=O)[nH]c3c(C(N)=O)nc(CC(C)C)nc32)cc1

Given back:
1. 87.7
2. 90.6
3. 102

Asked: Item under review: CCn1cc(C(=O)O)c(=O)c2cc(F)c(N3CCN(C(=S)Nc4cc(OC)ccc4OC)CC3)cc21 . Reported viability at 28.5 h, 10 µM?
Given back: 85.7
